MEASUREMENT TARGET: 5-LO (Homo sapiens)
Construct: release of leukotriene B4 (LTB4) in polymorphonuclear human leucocytes (PMN); endogenous in cells
Sequence (P09917 whole entry): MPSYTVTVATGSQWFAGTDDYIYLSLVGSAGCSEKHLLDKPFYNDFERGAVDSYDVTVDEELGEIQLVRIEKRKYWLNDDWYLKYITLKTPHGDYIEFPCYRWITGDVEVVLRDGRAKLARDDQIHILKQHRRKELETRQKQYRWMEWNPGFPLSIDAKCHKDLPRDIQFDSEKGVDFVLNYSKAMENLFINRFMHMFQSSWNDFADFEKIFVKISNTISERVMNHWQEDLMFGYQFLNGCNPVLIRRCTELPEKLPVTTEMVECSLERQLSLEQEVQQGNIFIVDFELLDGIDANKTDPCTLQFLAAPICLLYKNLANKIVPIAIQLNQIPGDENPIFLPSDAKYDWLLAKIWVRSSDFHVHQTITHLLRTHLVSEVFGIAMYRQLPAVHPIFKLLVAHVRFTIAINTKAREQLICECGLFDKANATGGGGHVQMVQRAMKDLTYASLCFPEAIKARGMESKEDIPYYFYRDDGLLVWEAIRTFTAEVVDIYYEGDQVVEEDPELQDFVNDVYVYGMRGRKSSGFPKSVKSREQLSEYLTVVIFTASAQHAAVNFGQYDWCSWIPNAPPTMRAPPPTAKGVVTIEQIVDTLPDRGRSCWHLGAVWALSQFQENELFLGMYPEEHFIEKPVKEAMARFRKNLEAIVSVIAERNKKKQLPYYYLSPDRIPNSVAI
PROTOCOL DESCRIPTION: lipoxygenase inhibition: release of leukotriene B4 (LTB4) in polymorphonuclear human leucocytes (PMN) after Ca ionophore, by reverse phase HPLC
EXPERIMENTAL CONDITIONS: LTB4 release in human PMN after addition of substance and Ca ionophore; RP-HPLC
ENDPOINT: IC50 (nM)

I. NC(=O)N(O)C(c1ccc(OCc2ccc3ccccc3n2)cc1)C1CCCCC1 (centres unmarked) [Example 1]
II. NC(=O)N(O)C(c1ccc(OCc2ccc3ccccc3n2)cc1)C1CCCC1 (centres unmarked) [Example 2]
## Task Which of the two items, I and II , has the greater recorded IC50? Pick one; state its label.
## Result II
(II: 1200 nM, I: 250 nM)
